# target_entity: T1, rat α-CGRP (1-37) (rat, C-terminal amide; N-terminal biotin when captured on the SA chip)
# T1 construct: also called rat α (1-37); α-rat
# T1 peptide: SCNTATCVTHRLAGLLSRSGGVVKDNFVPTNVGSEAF
# procedure_summary: Biacore, 37°C, Fab over CGRP on SA chip
The following binders are shown together with reported pKd values.
Lab note: report pKd as minus log10 of the concentration in molar units, number only.

// known answers, use as guide
Prompt line: Using known records, supply pKd for G1 variant M48 Fab (Fab, V domains shown, Fab; constant domains as m1) VH: EVQLVESGGGLVQPGGSLRLSCAASGFTFSNYWISWVRQAPGKGLEWVAEIRSKSDNLATHYAEAVKGRFTISRDNAKNSLYLQMNSLRAEDTAVYYCTVYFDYGLAIQNYWGQGTLVTVSS VL: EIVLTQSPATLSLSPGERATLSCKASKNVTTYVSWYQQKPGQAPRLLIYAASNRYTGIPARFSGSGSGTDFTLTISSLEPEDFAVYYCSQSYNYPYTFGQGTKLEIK
Response line: 5.72

Prompt line: Using known records, supply pKd for G1 variant M82 Fab (Fab, V domains shown, Fab; constant domains as m1) VH: EVQLVESGGGLVQPGGSLRLSCAASGFTFSNYWISWVRQAPGKGLEWVAEIRSESDNSATHYAEAVKGRFTISRDNAKNSLYLQMNSLRAEDTAVYYCTVYFDYGLAIQNYWGQGTLVTVSS VL: EIVLTQSPATLSLSPGERATLSCKASKNVVTYVSWYQQKPGQAPRLLIYGHSNRYTGIPARFSGSGSGTDFTLTISSLEPEDFAVYYCSQSYNYPYTFGQGTKLEIK
Response line: 6.41

Prompt line: Using known records, supply pKd for G1 variant M67 Fab (Fab, V domains shown, Fab; constant domains as m1; printed L561 read as L56I) VH: EVQLVESGGGLVQPGGSLRLSCAASGFTFSNYWISWVRQAPGKGLEWVAEIRSKSDFSATHYAEAVKGRFTISRDNAKNSLYLQMNSLRAEDTAVYYCTVYFDYGLAIQNYWGQGTLVTVSS VL: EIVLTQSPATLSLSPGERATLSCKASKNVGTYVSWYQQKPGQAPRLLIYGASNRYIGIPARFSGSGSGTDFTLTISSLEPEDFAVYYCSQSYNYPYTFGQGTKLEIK
Response line: 7.02

Prompt line: Using known records, supply pKd for G1 variant M13 Fab (Fab, V domains shown, Fab; constant domains as m1) VH: EVQLVESGGGLVQPGGSLRLSCAASGFTFSNYWISWVRQAPGKGLEWVAEIRSESDASATHYAEAVKGRFTISRDNAKNSLYLQMNSLRAEDTAVYYCTGYFDYGLAIQNYWGQGTLVTVSS VL: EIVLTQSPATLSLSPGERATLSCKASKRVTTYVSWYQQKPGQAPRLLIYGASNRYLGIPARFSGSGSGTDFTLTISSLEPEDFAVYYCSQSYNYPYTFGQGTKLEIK
Response line: 6.99

New cases:
Prompt line: Using known records, supply pKd for G1 variant M54 Fab (Fab, V domains shown, Fab; constant domains as m1) VH: EVQLVESGGGLVQPGGSLRLSCAASGFTFSNYWISWVRQAPGKGLEWVAEIRSKSDNPATHYAEAVKGRFTISRDNAKNSLYLQMNSLRAEDTAVYYCTVYFDYGLAIQNYWGQGTLVTVSS VL: EIVLTQSPATLSLSPGERATLSCKASKNVATYVSWYQQKPGQAPRLLIYAASNRYLGIPARFSGSGSGTDFTLTISSLEPEDFAVYYCSQSYNYPYTFGQGTKLEIK
Response line: 6.92
